Exercise: state measured pKi for each of the compounds provided.
# target_or_test_system: human emopamil binding protein and human 7-dehydrocholesterol reductase co-expressing cell membrane (Homo sapiens (Human), UniProt Q15125)
# Sequence (Q15125 whole entry): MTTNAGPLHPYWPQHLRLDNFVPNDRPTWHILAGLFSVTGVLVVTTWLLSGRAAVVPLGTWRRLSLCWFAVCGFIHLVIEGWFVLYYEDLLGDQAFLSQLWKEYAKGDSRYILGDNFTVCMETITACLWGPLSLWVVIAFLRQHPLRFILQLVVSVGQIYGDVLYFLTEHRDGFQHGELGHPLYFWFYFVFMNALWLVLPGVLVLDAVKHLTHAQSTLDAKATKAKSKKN
Numbers only, as −log10 of the molar value.

Guide cases for pKi, answers given:
O=S1(=O)CC2(CCN(CCOc3cnc([C@H]4CC[C@H](C(F)(F)F)CC4)c(F)c3)CC2)C1
7.50
C[C@@H](Cc1ccc([C@H]2CC[C@](C)(O)CC2)c(Cl)c1)CN1CCC2(C1)CS(=O)(=O)C2 (mixture of isomers) [Compound 123B]
7.96
O=S1(=O)CCC2(CC1)CN(CCOc1ccc(C(F)(F)F)cc1)C2
7.59
O=S1(=O)CC2(CCN(CCOc3ccc(OC(F)(F)F)cc3)CC2)C1
8.18
CC(C)(CN1CCC2(C1)CS(=O)(=O)C2)Oc1cccc(F)c1
7.67
CC(C)(CN1CCC2(CC1)CS(=O)(=O)C2)Oc1ccc(Cl)c(F)c1
8.14
CC(C)(CN1CC2(CCS(=O)(=O)CC2)C1)Oc1ccc(C(F)(F)F)cc1
7.86

Let's switch to this compound now.
stdin: Recorded pKi for C[C@H](Cc1ccc(C(F)(F)F)cc1)CN1CC2(CCS(=O)(=O)CC2)C1 (single isomer, unassigned) [232A*] , please?
stdout: 7.86
